- tested.target: HIV-1 reverse transcriptase (Human immunodeficiency virus 1, UniProt P03366;P03366 P03366:600-1159,P03366:600-1039)
- procedure.text: filter; HRT buffer, 6 mM MgCl2, 37 C
- study.conditions: tags: expressed in E. coli, purified per Davies et al. 1991; label: 5'-32P; intramolecular primer:template junction with internal loop (AA opposite CG)
pKd: −log10 of the molar value.
endpoint.label: pKd

>>> result("RT26 (ssDNA) DNA: ATCCGCCTGATTAGCGATACTTACGTGAGCGTGCTGTCCCCTAAAGGTGATACGTCACTTGAGCAAAATCACCTGCAGGGG")
"~9.00"

Reference for the values: patent US5786462
